testSystem: HLA-A*0201 (Homo sapiens, UniProt P04439, D140Y/D185E/D98H/E176V/E277Q/G131W/G231S/I119V/I121R/I166T/I218V/L300P/L318F/N151K/N90K/P208A/P217A/Q86G/Q94H/R138H/R169H/T345S)
experimentalParameters: Table 17, Example 12
Each record here notes measured Concentration of peptide that induces 20% of HLA-A2 expression.
Numeric only. Scale: µM

Reference set (2 entries):
[
  {
    "substance": "HIV: Reference peptide HIV pol 589-597, positive control (ISPIETVPV; UniProt P04585 589-597, looked up, fragment) [reference compound]",
    "recordedResult": 0.85
  },
  {
    "substance": "LMLGEFLKL [2M, reference compound]",
    "recordedResult": 2.87
  }
]

Noted for FMLGEFLKL [BIRC5-B1] : its Concentration of peptide that induces 20% of HLA-A2 expression reads 1.24

Noted for LTLGEFLKL (listed as Homo sapiens) [BIRC5-H, reference compound] : its Concentration of peptide that induces 20% of HLA-A2 expression reads 95.9
